- Measurement protocol: Human HepG2 cell viability assay in 384 well format
- Format: toxicity, cell-based
- Parameters: dose 125 nL, time 70.5 hour; concentration not given beside the values
- Stated conditions: HepG2 cells, read-out: Inhibition
# cytotoxicity at 70.5 h per entry
Value type: cytotoxicity at 70.5 h (%)

| Compound | Recorded measurement |
| --- | --- |
| CCNC(=O)CCS(=O)(=O)Cc1ccn(-c2cccc(F)c2)n1 | 2.48 |
| CNC(=O)c1ccc(-c2ccccc2)n1C | -9.17 |
| CSc1ccc(CN(C(=O)c2cc[nH]n2)C2CC2)cc1 | -7.21 |
| CC(C)CCN1CCN(C(=O)c2cnccn2)CC1 | 18.6 |
| O=C(c1cc(-n2cccn2)ccn1)N1CCOc2ncccc21 | -1.03 |
| CC(C)C(NC(=O)C1CCCC1)c1cc(O)nc(-c2cccnc2)n1 (configuration not stated) | 11 |
| O=C(Nc1ccc(-c2cscn2)cc1)C1CCCN(Cc2ccon2)C1 (configuration not stated) | -1.4 |
| O=C(NCCn1cccn1)c1nnc2ccccc2n1 | 19.4 |
| COc1ccc(Cl)cc1C(=O)NC(CC(=O)O)c1cccs1 (configuration not stated) | -11 |
| CC(C)(C)OC(=O)N1CC(=O)N(CCc2ccccc2)CC(O)C1 (configuration not stated) | 30.2 |
| CC1(C(=O)N2CCOCC2)CN(Cc2ncc[nH]2)CCO1 (configuration not stated) | 11.7 |
| N#Cc1cc2n(n1)CCN(C(=O)CCc1c[nH]c3ccccc13)C2 | -10.2 |
